target: Nitric oxide synthase 1 (Homo sapiens, UniProt P29475); test: Inhibition of human nNOS expressed in HEK293 cells assessed as inhibition ionomycin-induced nitric oxide production incubated for 24 hrs measured after 18 hrs of ionomycin challenge by 2,3-diaminonaphthalene assay
Sequence (P29475 whole entry): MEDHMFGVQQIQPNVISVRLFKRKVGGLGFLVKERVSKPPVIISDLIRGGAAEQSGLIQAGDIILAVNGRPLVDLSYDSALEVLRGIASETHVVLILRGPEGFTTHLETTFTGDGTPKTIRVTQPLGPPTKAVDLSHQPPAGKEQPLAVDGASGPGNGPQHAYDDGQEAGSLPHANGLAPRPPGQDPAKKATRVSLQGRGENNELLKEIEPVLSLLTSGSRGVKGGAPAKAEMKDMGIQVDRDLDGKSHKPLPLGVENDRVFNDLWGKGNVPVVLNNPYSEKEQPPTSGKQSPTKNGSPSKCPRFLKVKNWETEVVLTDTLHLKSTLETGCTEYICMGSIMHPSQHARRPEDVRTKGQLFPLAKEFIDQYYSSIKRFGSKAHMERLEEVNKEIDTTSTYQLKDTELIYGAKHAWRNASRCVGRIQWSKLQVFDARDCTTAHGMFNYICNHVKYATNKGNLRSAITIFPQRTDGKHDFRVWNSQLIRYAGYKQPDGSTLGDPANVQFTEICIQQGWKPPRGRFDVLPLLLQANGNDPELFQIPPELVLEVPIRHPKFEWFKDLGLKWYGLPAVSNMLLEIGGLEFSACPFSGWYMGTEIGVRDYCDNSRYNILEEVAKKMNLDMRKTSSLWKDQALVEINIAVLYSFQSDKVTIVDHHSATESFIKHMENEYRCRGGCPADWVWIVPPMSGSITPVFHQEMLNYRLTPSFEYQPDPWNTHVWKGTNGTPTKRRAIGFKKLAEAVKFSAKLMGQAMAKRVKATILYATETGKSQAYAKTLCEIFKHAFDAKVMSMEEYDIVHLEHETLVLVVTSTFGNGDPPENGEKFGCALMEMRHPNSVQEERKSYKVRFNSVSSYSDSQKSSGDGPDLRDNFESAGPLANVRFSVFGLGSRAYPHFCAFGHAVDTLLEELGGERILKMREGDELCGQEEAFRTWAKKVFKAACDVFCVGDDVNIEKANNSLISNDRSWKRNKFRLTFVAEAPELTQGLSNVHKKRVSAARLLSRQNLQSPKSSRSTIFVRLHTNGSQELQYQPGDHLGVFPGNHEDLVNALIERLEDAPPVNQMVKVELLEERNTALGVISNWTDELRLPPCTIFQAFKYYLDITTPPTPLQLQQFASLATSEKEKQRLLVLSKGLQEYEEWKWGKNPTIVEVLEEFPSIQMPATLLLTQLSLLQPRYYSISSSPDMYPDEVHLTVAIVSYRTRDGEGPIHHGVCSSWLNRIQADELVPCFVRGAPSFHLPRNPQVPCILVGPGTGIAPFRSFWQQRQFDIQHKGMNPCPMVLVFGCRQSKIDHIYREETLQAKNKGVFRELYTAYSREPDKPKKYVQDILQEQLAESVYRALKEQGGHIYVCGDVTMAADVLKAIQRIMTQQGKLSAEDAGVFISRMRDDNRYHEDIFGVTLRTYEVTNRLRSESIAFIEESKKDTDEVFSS
MEASUREMENT_NAME: EC50

Example molecules with recorded EC50:
INSERT INTO results (molecule, test_value) VALUES
  ('CN(CCCNCc1ccc(F)c(F)c1)c1nc(-n2ccnc2)ns1', '> 100 µM'),
  ('Cc1cc(C(C)NCCOCc2ccc3c(c2)OCO3)nc(-n2ccnc2)n1 (stereo not given)', '> 100 µM');

Query: Name the reported EC50 value associated with the molecule CNC(=O)CN(CCCNCc1ccc2c(c1)OCO2)c1nc(-n2ccnc2)ns1
Result: 7.2 µM

Query: Name the reported EC50 value associated with the molecule Cc1cc(CCCCNCc2ccc3c(c2)OCO3)nc(-n2ccnc2)n1
Result: > 100 µM

Query: Name the reported EC50 value associated with the molecule COc1ccc(CNCCCN(C)c2nc(-n3ccnc3)ns2)cc1OC
Result: > 100 µM

Query: Name the reported EC50 value associated with the molecule CN(C)C(=O)CN(CCCNCc1ccc2c(c1)OCO2)c1nc(-n2ccnc2)ns1
Result: > 100 µM

====

target: Nitric oxide synthase, inducible (Homo sapiens, UniProt P35228); assay: Inhibition of human iNOS expressed in human HEK293 cells assessed as nitrite accumulation after 18 hrs by 2,3-diaminonapthalene assay
Sequence (P35228 whole entry): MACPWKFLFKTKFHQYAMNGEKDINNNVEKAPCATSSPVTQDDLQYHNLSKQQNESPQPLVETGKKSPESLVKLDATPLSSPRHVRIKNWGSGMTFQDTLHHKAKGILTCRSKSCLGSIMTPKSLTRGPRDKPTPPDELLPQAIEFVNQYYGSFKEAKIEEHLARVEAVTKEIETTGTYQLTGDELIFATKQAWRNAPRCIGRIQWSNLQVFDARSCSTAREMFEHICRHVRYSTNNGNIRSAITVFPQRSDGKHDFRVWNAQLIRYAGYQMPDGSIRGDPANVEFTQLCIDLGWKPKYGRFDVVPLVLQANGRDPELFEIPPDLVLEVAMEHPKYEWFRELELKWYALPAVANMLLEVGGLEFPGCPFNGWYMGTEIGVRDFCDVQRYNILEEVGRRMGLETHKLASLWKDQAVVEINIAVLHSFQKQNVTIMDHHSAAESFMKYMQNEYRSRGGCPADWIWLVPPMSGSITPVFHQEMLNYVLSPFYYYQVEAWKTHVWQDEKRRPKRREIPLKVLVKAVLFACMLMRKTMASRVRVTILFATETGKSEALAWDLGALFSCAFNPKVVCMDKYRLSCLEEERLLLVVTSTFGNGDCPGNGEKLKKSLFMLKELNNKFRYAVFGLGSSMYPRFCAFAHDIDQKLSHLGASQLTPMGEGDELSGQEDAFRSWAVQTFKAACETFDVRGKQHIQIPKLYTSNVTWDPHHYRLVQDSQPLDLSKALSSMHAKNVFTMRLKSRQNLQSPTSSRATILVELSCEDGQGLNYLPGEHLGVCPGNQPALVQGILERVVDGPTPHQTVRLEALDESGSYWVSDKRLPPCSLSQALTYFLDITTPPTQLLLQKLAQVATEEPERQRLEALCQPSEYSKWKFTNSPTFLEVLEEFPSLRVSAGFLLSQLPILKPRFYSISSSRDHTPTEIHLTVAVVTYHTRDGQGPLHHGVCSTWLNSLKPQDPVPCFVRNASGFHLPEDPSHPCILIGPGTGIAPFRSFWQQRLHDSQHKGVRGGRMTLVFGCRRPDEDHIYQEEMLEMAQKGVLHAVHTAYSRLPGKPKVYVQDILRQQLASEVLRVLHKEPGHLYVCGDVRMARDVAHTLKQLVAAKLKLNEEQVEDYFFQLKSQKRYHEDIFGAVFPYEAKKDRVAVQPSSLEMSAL
MEASUREMENT_NAME: EC50 (nM)

INSERT INTO results (compound, units, test_value) VALUES
  ('CN(CCCNC(=O)c1ccc2c(c1)OCO2)c1nc(-n2ccnc2)ns1', 'nM', 6300);

(I) CN(C)C(=O)CN(CCCNCc1ccc2c(c1)OCO2)c1nc(-n2ccnc2)ns1
(II) Cc1cc(C(C)NCCOCc2ccc3c(c2)OCO3)nc(-n2ccnc2)n1 (stereo not drawn)
Query: For the pair I and II , which member has the lower EC50 number? Kindly give the label for the entry you pick.
Result: I

====

target: Nitric oxide synthase, inducible (Homo sapiens, UniProt P35228); assay: Inhibition of human iNOS expressed in human HEK293 cells assessed as nitrite accumulation after 18 hrs by 2,3-diaminonapthalene assay; assay type: cell-based
MEASUREMENT_NAME: pEC50
Lab note: report pEC50 as minus log10 of the concentration in molar units, number only.

INSERT INTO assay_data (smiles_notation, test_value) VALUES
  ('N#CCN(CCCNCc1ccc2c(c1)OCO2)c1nc(-n2ccnc2)ns1', 7.92);

Query: Name the reported pEC50 value associated with the molecule CN(CCCNCCc1ccc2c(c1)OCO2)c1nc(-n2ccnc2)ns1
Result: 6.64

====

molecular target: UniProt P35228; assay: Inhibition of human iNOS expressed in human HEK293 cells assessed as nitrite accumulation after 18 hrs by 2,3-diaminonapthalene assay
pEC50: −log10 of the molar value.
// reported pEC50 per item

Example molecules with recorded pEC50:
INSERT INTO results (smiles_notation, measurement_name, test_value) VALUES
  ('O=C(O)CN(CCCNCc1ccc2c(c1)OCO2)c1nc(-n2ccnc2)ns1', 'pEC50', '< 4.00'),
  ('CN(CCCNCc1ccc2[nH]ccc2c1)c1nc(-n2ccnc2)ns1', 'pEC50', '< 4.00'),
  ('CN(CCCNCc1ccc(F)c(F)c1)c1nc(-n2ccnc2)ns1', 'pEC50', '< 4.00');

Now look at this entry.
Query: Name the reported pEC50 value associated with the molecule Cc1cc(C(=O)NCCN(C)Cc2ccc3c(c2)OCO3)nc(-n2ccnc2)n1
Result: < 4.00

====

molecular target: Nitric oxide synthase 1 (Homo sapiens, UniProt P29475); assay: Inhibition of human nNOS expressed in HEK293 cells assessed as inhibition ionomycin-induced nitric oxide production incubated for 24 hrs measured after 18 hrs of ionomycin challenge by 2,3-diaminonaphthalene assay
MEASUREMENT_NAME: EC50 (µM)

Example compounds with recorded EC50:
INSERT INTO assay_data (compound, measurement_name, test_value) VALUES
  ('CN(CCCNCc1ccc2c(c1)OCO2)c1nc(-n2ccnc2)ns1', 'EC50', 17.3),
  ('CN(C)c1ccc(CN(CCCNCc2ccc3c(c2)OCO3)c2nc(-n3ccnc3)ns2)cc1', 'EC50', 6.8);

(1) c1cncc(CN(CCCNCc2ccc3c(c2)OCO3)c2nc(-n3ccnc3)ns2)c1
(2) c1coc(CN(CCCNCc2ccc3c(c2)OCO3)c2nc(-n3ccnc3)ns2)c1
(3) Cc1cc(C(C)NCCN(C)Cc2ccc3c(c2)OCO3)nc(-n2ccnc2)n1 (stereo not drawn)
(4) NC(=O)CN(CCCNCc1ccc2c(c1)OCO2)c1nc(-n2ccnc2)ns1
Query: Hello, I need these entries ordered by EC50, highest reading first. Thanks! Would you mind listing the labels in the order asked for?
Result: 4, 3, 2, 1

====

target: Nitric oxide synthase 1 (Homo sapiens, UniProt P29475); experiment: Inhibition of human nNOS expressed in HEK293 cells assessed as inhibition ionomycin-induced nitric oxide production incubated for 24 hrs measured after 18 hrs of ionomycin challenge by 2,3-diaminonaphthalene assay
MEASUREMENT_NAME: EC50 (µM)

(A) c1cn(-c2nsc(N(CCCNCc3ccc4c(c3)OCO4)C3CC3)n2)cn1
(B) c1cn(-c2nsc(N(CCCNCc3ccc4c(c3)OCO4)Cc3nccs3)n2)cn1
Query: For the pair A and B , which member has the lower EC50 number? Kindly give the label for the entry you pick.
Result: B
